The reported numbers originate from ChEMBL document CHEMBL1201862.

test system: OVCAR-5; assay: NCI tumour cell line growth inhibition, 48 h
Activity calls are given as the source filed them. No stated cut-off is given here; in the data, active = GI50 up to about 1.1 µM and inactive = higher.
Entries and their GI50
Assay endpoint: GI50

In [3]: df
Out[3]:
                                    compound  assay_endpoint               result
 0   OC[C@]1(n2nc3ccccc3n2)OC[C@@H]1c1ccccc1            GI50   91.4 µM (inactive)
 1  COc1ccc(C=C2C(C)=NN(c3cccc(Cl)c3)C23C(Cl)C(=O)N3c2nc3ccccc3s2)cc1 (stereo unspecified)            GI50   17.3 µM (inactive)
 2            O=C(/C=C/c1ccccc1Cl)c1ccccc1Cl            GI50   21.1 µM (inactive)
 3  COc1ccc(NC(=O)Oc2cc(C)c3ccc(=O)cc-3o2)c(OC)c1.COc1ccc(NC(=O)Oc2ccc3c(C)cc(=O)oc3c2)c(OC)c1            GI50  > 100 µM (inactive)
 4      CN(C)/C(=N/C(=S)Nc1ccccc1)SCc1ccccc1            GI50  > 100 µM (inactive)
 5                            CSc1nnc(SC)nn1            GI50   18.1 µM (inactive)
 6        CN(C)CCOc1cccc2c1C(=O)c1ccccc1C2=O            GI50   16.5 µM (inactive)
 7  C[N+]1(CCC[N+]2(C)CC3C4C=CC(CC4)C3C2)CCOCC1 (stereo unspecified)            GI50  > 100 µM (inactive)
 8    O=C(O)c1ccc(C(O)(c2ccccc2)c2ccccc2)cc1            GI50  > 100 µM (inactive)
 9         Nc1cc(-c2ccccc2)nn1-c1nsc2ccccc12            GI50  > 100 µM (inactive)
10  CC(C)(C)OC(=O)N1N=NC2C3OC(CC3=O)C21 (stereo unspecified)            GI50  > 100 µM (inactive)

----------
Below are GI50 values recorded for HCT-15.
Assay endpoint: GI50

>>> print(df.to_string())
                                    molecule    result
 0  C=CCNC1=NC(=O)C(CC(=O)Nc2ccc([N+](=O)[O-])cc2[N+](=O)[O-])S1 (stereo unspecified)  > 100 µM
 1      CN(C)/C(=N/C(=S)Nc1ccccc1)SCc1ccccc1   57.5 µM
 2             CC(=O)OCCN1c2ccccc2Sc2cnccc21   > 10 µM
 3    C=CCSC1=N/C(=C\c2ccc(C)cc2)C(=O)N1CC=C   25.3 µM
 4                             Oc1cc(Cl)ncn1  > 100 µM
 5               CNC(=O)CN1CC(=O)N(C)C(=O)C1  > 100 µM
 6  COc1ccc(NC(=O)Oc2cc(C)c3ccc(=O)cc-3o2)c(OC)c1.COc1ccc(NC(=O)Oc2ccc3c(C)cc(=O)oc3c2)c(OC)c1  > 100 µM
 7              c1nc(OCC2CCCCC2)c2nc[nH]c2n1   46.3 µM
 8  Cc1nc2ccccc2c(=O)n1/N=C(\N=N\c1ccccc1Cl)c1ccccc1   22.2 µM
 9  C=C[C@@]1(C)CC2CC[C@]3(C)C(C)=CC(=O)CC3[C@]2(C)CC1O (stereo partly specified)  > 100 µM
10                            OCCCNCc1ccccn1  > 100 µM
